# Test system: ATP phosphoribosyltransferase (HisG)
# Test method notes: Degree of inhibition by L-histidine on activities of ATP phosphoribosyltransferase variants
# Format: biochemical, Corynebacterium glutamicum
# Condition parameters: L-histidine 100 mM
Readout kind: Activity of Enzyme, 100 mM L-histidine (U/mg)
State the answer as a number, implicitly in U/mg.

Solved cases (2 shown):
| Molecule | Activity of Enzyme, 100 mM L-histidine (U/mg) |
| --- | --- |
| HisG (N215K/L231F/T235A): known HisG variant N215K/L231F/T235A (Biochimie. 2012 March; 94(3):829-38) (protein) MLKIAVPNKGSLSERAMEILAEAGYAGRGDSKSLNVFDEANNVEFFFLRPKDIAIYVAGGQLDLGITGRDLARDSQADVHEVLSLGFGSSTFRYAAPADEEWSIEKLDGKRIATSYPNLVRDDLAARGLSAEVLRLDGAVEVSIKLGVADAIADVVSTGRTLRQQGLAPFGEVLCTSEAVIVGRKDEKVTPEQQILLRRIQGILHAQNFLMLDYKVDRDNLDAATAVTPGFSGPAVSPLARDNWVAVRAMVPRRSANAIMDKLAGLGAEAILASEIRIARI | 0.023 |
| HisG (N215R): ATP phosphoribosyltransferase variant with N215R substitution (protein) MLKIAVPNKGSLSERAMEILAEAGYAGRGDSKSLNVFDEANNVEFFFLRPKDIAIYVAGGQLDLGITGRDLARDSQADVHEVLSLGFGSSTFRYAAPADEEWSIEKLDGKRIATSYPNLVRDDLAARGLSAEVLRLDGAVEVSIKLGVADAIADVVSTGRTLRQQGLAPFGEVLCTSEAVIVGRKDEKVTPEQQILLRRIQGILHAQNFLMLDYRVDRDNLDAATAVTPGLSGPTVSPLARDNWVAVRAMVPRRSANAIMDKLAGLGAEAILASEIRIARI | 0 |

Reported Activity of Enzyme, 100 mM L-histidine for HisG (G233H/T235Q): ATP phosphoribosyltransferase variant with G233H and T235Q substitutions (protein) MLKIAVPNKGSLSERAMEILAEAGYAGRGDSKSLNVFDEANNVEFFFLRPKDIAIYVAGGQLDLGITGRDLARDSQADVHEVLSLGFGSSTFRYAAPADEEWSIEKLDGKRIATSYPNLVRDDLAARGLSAEVLRLDGAVEVSIKLGVADAIADVVSTGRTLRQQGLAPFGEVLCTSEAVIVGRKDEKVTPEQQILLRRIQGILHAQNFLMLDYNVDRDNLDAATAVTPGLSHPQVSPLARDNWVAVRAMVPRRSANAIMDKLAGLGAEAILASEIRIARI : what is it? 0.542

Reported Activity of Enzyme, 100 mM L-histidine for HisG: wild-type Corynebacterium glutamicum ATP phosphoribosyltransferase, SEQ ID NO: 13 (protein, HisG) MLKIAVPNKGSLSERAMEILAEAGYAGRGDSKSLNVFDEANNVEFFFLRPKDIAIYVAGGQLDLGITGRDLARDSQADVHEVLSLGFGSSTFRYAAPADEEWSIEKLDGKRIATSYPNLVRDDLAARGLSAEVLRLDGAVEVSIKLGVADAIADVVSTGRTLRQQGLAPFGEVLCTSEAVIVGRKDEKVTPEQQILLRRIQGILHAQNFLMLDYNVDRDNLDAATAVTPGLSGPTVSPLARDNWVAVRAMVPRRSANAIMDKLAGLGAEAILASEIRIARI : what is it? 0
